# Tested on: LTK;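 further: KINOMEscan kinase panel screen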
# Experimental Conditions: concentration: 1 μM,replicates: in singlicate; n = 1
// returns N unless %Inh is strictly below 10%, in which case Y

*Q* Dear reviewer, please state whether Cn1ccc2ncnc(Oc3ccc(NC(=O)Nc4cccc(C(F)(F)F)c4)c(Cl)c3)c21 has %Inh strictly beneath 10%.
*A* N

*Q* Another compound to look at: Cc1cccc(-c2nc(Nc3ccncc3)c3sccc3n2)n1
*A* N

*Q* Another compound to look at: CN1CCN(CCNc2nc3cc(Oc4ccc(NC(=O)Nc5cc(C(F)(F)F)ccc5F)cc4)ccc3[nH]2)CC1.Cl.Cl
*A* N

*Q* Another compound to look at: CC(=O)Nc1nc2cnc(Nc3cc(NC(=O)c4cccc(CC(C)(C)C#N)c4)ccc3C)nc2s1
*A* Y

*Q* Another compound to look at: N#Cc1cccc(C(=O)NC2CCN(c3ccnc(Nc4ccc(F)cc4)n3)C2)c1 (centres unmarked)
*A* Y

*Q* Another compound to look at: COc1cc(Nc2nccc(N3CCC(NC(=O)c4cccc(C#N)c4)C3)n2)cc(OC)c1OC (centres unmarked)
*A* Y
